Data origin: patent EP1169036B1

- Test system: human lung carcinoma (A549) cells
- Assay procedure: cells
- Type: cell-based
- Test parameters: read-out: CPE Inhibition test IC50
Readout: IC50 (µM)
Just the number please, in µM, no unit attached.

Give IC50 for this entry on human lung carcinoma (A549) cells: Cc1nocc1C(=O)Nc1ccc(C(F)(F)F)cc1 [Compound 99-126] 60

====

- Tested on: African green monkey kidney (MA-104) cells
- Assay procedure: cells
- Format: cell-based
- Test parameters: Chlorocebus sabaeus, MA104, cytotoxic concentration, run with Parainfluenza Type 3 Virus; positive control drug = ribavirin; read-out: CPE Inhibition test IC50
Readout: IC50 (µM)
Just the number please, in µM, no unit attached.

Dear colleague, please send me the reported IC50 for C/C(O)=C(\C#N)C(=O)Nc1ccc(C(F)(F)F)cc1 [Compound A771726] when you can. 30

Dear colleague, please send me the reported IC50 for Cc1nocc1C(=O)Nc1ccc(C(F)(F)F)cc1 [Compound 99-126] when you can. 11
